Give measured pIC50 for each item. Keep answers brief.
Test system: K562 (myelogenous leukemia)
assay-remarks: MTT cytotoxicity assay, K562
Format: cell-based, human
experimental-parameters: Homo sapiens, K562, 72 h, read-out: IC50 Blood K562
Give bare numbers, as −log10 of the molar value.

> print(dat)
                                     smiles  observed.measurement
1  FC(F)(F)c1cccc(-c2nc3cccnc3n2-c2ccc(Cl)cc2)c1                  4.37
2     Oc1cccc(-c2nc3cccnc3n2-c2ccc(F)cc2)c1                  4.31
3  Fc1ccc(-n2c(-c3cccc(C(F)(F)F)c3)nc3cccnc32)cc1                  4.38

Please look at the items below and tell me pIC50 for each one, in order.
1. COc1cc(-c2nc3cccnc3n2-c2ccc(Cl)cc2)cc(OC)c1OC
2. COc1cccc(-c2nc3cccnc3n2-c2ccc(F)cc2)c1

1. 4.33
2. 4.34

---

Test system: pancreatic cancer cell line PANC-1
assay-remarks: MTT cytotoxicity assay, PANC-1
Assay type: cell-based
experimental-parameters: Homo sapiens, PANC-1, 72 h, read-out: IC50 Pancreas PANC-1
recorded-endpoint: IC50

Examples with answers:
> print(dat)
                                   compound  recorded.endpoint  observed.measurement
1  Oc1cccc(-c2nc3cccnc3n2-c2ccc(F)cc2)c1 [Compound 3a]               IC50              > 100 µM
2  COc1cccc(-c2nc3cccnc3n2-c2ccc(F)cc2)c1 [Compound 3b]               IC50              > 100 µM

Please look at the items below and tell me IC50 for each one, in order.
1. COc1cc(-c2nc3cccnc3n2-c2ccc(Cl)cc2)cc(OC)c1OC [Compound 3g]
2. FC(F)(F)c1cccc(-c2nc3cccnc3n2-c2ccc(Cl)cc2)c1 [Compound 3f]
3. Fc1ccc(-n2c(-c3cccc(C(F)(F)F)c3)nc3cccnc32)cc1 [Compound 3c]

1: 83.5 µM; 2: > 100 µM; 3: > 100 µM

---

target-of-assay: Recombinant human COX-2 (Homo sapiens, UniProt P35354)
Sequence (P35354 18-604): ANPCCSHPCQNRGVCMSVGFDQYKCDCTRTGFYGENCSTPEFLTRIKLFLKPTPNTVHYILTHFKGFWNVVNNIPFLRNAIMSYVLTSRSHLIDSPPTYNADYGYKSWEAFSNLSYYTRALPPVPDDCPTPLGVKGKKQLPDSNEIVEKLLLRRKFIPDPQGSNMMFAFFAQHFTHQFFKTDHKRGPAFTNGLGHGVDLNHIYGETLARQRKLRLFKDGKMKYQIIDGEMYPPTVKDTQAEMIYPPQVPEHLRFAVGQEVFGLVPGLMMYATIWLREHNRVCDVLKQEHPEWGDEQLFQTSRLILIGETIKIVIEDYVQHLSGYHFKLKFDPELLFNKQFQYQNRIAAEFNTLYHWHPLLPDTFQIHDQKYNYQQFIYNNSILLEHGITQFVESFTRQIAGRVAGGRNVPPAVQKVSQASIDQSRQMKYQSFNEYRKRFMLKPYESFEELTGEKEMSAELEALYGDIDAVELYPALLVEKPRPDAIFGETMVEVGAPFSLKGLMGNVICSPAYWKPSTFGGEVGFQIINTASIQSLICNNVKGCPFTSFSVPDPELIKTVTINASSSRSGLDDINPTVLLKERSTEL
assay-remarks: biochemical
Assay type: biochemical
experimental-parameters: IC50 COX-2, recombinant human COX-2; TMPD oxidation at 603 nm
Give measured pIC50 for each item. Keep answers brief.
Numbers only, as −log10 of the molar value.

Examples with answers:
> print(dat)
                                     smiles  observed.measurement
1  Fc1ccc(-n2c(-c3cccc(C(F)(F)F)c3)nc3cccnc32)cc1                  4.82
2     Oc1cccc(-c2nc3cccnc3n2-c2ccc(F)cc2)c1                  4.44
3  COc1cc(-c2nc3cccnc3n2-c2ccc(Cl)cc2)cc(OC)c1OC                  4.65

Next compound, pIC50 to be filled in.
Could you tell me which pIC50 is on file for "FC(F)(F)c1cccc(-c2nc3cccnc3n2-c2ccc(Cl)cc2)c1" ? 5.04

---

target-of-assay: Recombinant human COX-2 (Homo sapiens, UniProt P35354)
assay-remarks: biochemical
Format: biochemical
experimental-parameters: ratio of IC50 COX-2 to IC50 COX-1
Give measured Selectivity ratio COX-2/COX-1 for each item. Keep answers brief.
Give bare numbers.

Examples with answers:
> print(dat)
                                     smiles              recorded.endpoint  observed.measurement
1  Fc1ccc(-n2c(-c3cccc(C(F)(F)F)c3)nc3cccnc32)cc1  Selectivity ratio COX-2/COX-1                  0.42
2  COc1cc(-c2nc3cccnc3n2-c2ccc(Cl)cc2)cc(OC)c1OC  Selectivity ratio COX-2/COX-1                  1.17
3     Oc1cccc(-c2nc3cccnc3n2-c2ccc(F)cc2)c1  Selectivity ratio COX-2/COX-1                  3.59

Next compound, Selectivity ratio COX-2/COX-1 to be filled in.
Please state recorded Selectivity ratio COX-2/COX-1 (tested on Recombinant human COX-2 (Homo sapiens, UniProt P35354)) of "FC(F)(F)c1cccc(-c2nc3cccnc3n2-c2ccc(Cl)cc2)c1" 0.42
